- TEST METHOD NOTES: Tryptophan fluorescence, binding to lipid vesicles
- MEASUREMENT CONDITIONS: PC/cholesterol (8:1, w/w) vesicles, peptide 2 μM, lipid 100 μM, excitation 280 nm
Reported Tryptophan fluorescence emission maximum by item:
Respond numerically; units are nm and should not be typed.

substance="Ac-KWKSFLKTFKSAKKTALHTALKAISS-NH2 [Peptide V16A]" uom=nm reported_result=349
substance="Ac-KWKSFLKTFKSAKKTKLHTALKAISS-NH2 [Peptide V16K]" uom=nm reported_result=349

## Input Entry Ac-KWKSFLKTFKSAKKTELHTALKAISS-NH2 [Peptide V16E] has what Tryptophan fluorescence emission maximum?
## Output 349

## Input Then what about the substance Ac-KWKSFLKTFKSAKKTLLHTALKAISS-NH2 [Peptide V16L] ?
## Output 348

## Input Then what about the substance Ac-KWKSFLKTFKSAKKTSLHTALKAISS-NH2 [Peptide V16S] ?
## Output 349

## Input Then what about the substance Ac-KWKSFLKTFKSAKKTGLHTALKAISS-NH2 [Peptide V16G] ?
## Output 349

---

Reported [θ]222, mean residue molar ellipticity, 50% TFE by item:
- TEST METHOD NOTES: CD spectroscopy, helicity in benign buffer and in 50% TFE
- Type: physicochemical
- MEASUREMENT CONDITIONS: CD at 222 nm, 25 °C, KP buffer diluted 1:1 (v/v) with TFE, peptide 75 μM

## Input Entry Ac-KWKSFLKTFKSAKKTKLHTALKAISS-NH2 [Peptide V16K] has what [θ]222, mean residue molar ellipticity, 50% TFE?
## Output −29,313 degree·cm^2·dmol^−^1

## Input Then what about the substance Ac-KWKSFLKTFKSAKKTELHTALKAISS-NH2 [Peptide V16E] ?
## Output −30,063 degree·cm^2·dmol^−^1

## Input Then what about the substance Ac-KWKSFLKTFKSAKKTLLHTALKAISS-NH2 [Peptide V16L] ?
## Output −29,803 degree·cm^2·dmol^−^1

## Input Then what about the substance Ac-KWKSFLKTFKSAKKTGLHTALKAISS-NH2 [Peptide V16G] ?
## Output −27,857 degree·cm^2·dmol^−^1

## Input Then what about the substance Ac-KWKSFLKTFKSAKKTSLHTALKAISS-NH2 [Peptide V16S] ?
## Output −28,949 degree·cm^2·dmol^−^1

## Input Then what about the substance Ac-KWKSFLKTFKSAKKTALHTALKAISS-NH2 [Peptide V16A] ?
## Output −28,769 degree·cm^2·dmol^−^1

---

- TEST METHOD NOTES: CD spectroscopy, helicity in benign buffer and in 50% TFE
- Type: physicochemical
- MEASUREMENT CONDITIONS: KP buffer diluted 1:1 (v/v) with TFE, 25 °C; relative to the molar ellipticity of peptide V16E in 50% TFE
Reported % helix, 50% TFE by item:
Respond numerically; units are % and should not be typed.

substance="Ac-KWKSFLKTFKSAKKTALHTALKAISS-NH2 [Peptide V16A]" reported_result=95.7
substance="Ac-KWKSFLKTFKSAKKTSLHTALKAISS-NH2 [Peptide V16S]" reported_result=96.3
substance="Ac-KWKSFLKTFKSAKKTGLHTALKAISS-NH2 [Peptide V16G]" reported_result=92.7

## Input Entry Ac-KWKSFLKTFKSAKKTLLHTALKAISS-NH2 [Peptide V16L] has what % helix, 50% TFE?
## Output 99.1

## Input Then what about the substance Ac-KWKSFLKTFKSAKKTELHTALKAISS-NH2 [Peptide V16E] ?
## Output 100

## Input Then what about the substance Ac-KWKSFLKTFKSAKKTKLHTALKAISS-NH2 [Peptide V16K] ?
## Output 97.5
